Below, each entry is listed with its recorded IC50.
Target: CDK1/Cyclin B1 (Homo sapiens, UniProt P06493)
Sequence (P06493 whole entry): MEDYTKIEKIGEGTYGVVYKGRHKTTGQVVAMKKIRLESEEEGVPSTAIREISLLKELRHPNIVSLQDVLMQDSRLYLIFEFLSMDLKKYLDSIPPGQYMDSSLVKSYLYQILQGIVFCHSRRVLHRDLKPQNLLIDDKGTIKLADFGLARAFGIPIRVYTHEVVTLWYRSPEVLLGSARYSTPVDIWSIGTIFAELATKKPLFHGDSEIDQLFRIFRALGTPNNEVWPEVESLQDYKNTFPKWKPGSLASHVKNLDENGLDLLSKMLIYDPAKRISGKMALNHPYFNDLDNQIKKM
Sequence (P14635 whole entry partner): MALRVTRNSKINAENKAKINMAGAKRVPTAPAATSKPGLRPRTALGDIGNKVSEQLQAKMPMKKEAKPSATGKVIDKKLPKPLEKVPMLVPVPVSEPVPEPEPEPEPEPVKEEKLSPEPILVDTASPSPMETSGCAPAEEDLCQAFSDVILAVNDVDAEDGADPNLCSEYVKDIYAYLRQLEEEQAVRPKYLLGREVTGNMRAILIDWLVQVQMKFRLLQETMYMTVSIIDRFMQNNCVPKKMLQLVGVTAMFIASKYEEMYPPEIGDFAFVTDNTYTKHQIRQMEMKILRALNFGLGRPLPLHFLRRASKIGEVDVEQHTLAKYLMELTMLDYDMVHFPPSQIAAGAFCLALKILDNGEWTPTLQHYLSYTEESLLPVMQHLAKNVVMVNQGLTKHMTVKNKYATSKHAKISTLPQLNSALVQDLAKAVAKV
Assay: CDK1/Cyclin B1 Biochemical Assay (TR-FRET), 1 mM ATP
Details: 0.15 μM Rb (Ser780)-biotin substrate, pH7.0, 60 min preincubation, 90 min reaction, room temperature

Guide cases for IC50, answers given:
1) CC(C)(CO)NC(=O)O[C@H]1CC[C@@H](c2cc(Nc3ccc4c(c3F)CN(C3CC3)S4(=O)=O)n[nH]2)C1 (single isomer, unassigned) [Example 359b]: 2890 nM
2) CC(C)(CO)NC(=O)O[C@H]1CC[C@@H](c2cc(Nc3ccc4c(c3F)CS(=O)(=O)N4)n[nH]2)C1 (relative stereo) [Example 443]: 582 nM
3) CC[C@H](C)NC(=O)O[C@H]1CC[C@@H](c2cc(Nc3ccc4c(c3F)CS(=O)(=O)N4CC(C)(C)O)n[nH]2)C1 (relative stereo) [Example 434]: 747 nM
4) CC1(NC(=O)O[C@@H]2CC[C@H](c3cc(Nc4ccc5c(c4F)CS(=O)(=O)N5)n[nH]3)C2)CCC1 (single isomer, unassigned) [Example 427a]: 145 nM
5) CN1c2ccc(Nc3cc([C@@H]4CC[C@H](OC(=O)NC5CCOC5)C4)[nH]n3)cc2CS1(=O)=O (relative stereo) [Example 424]: > 10000 nM

Lab request: please report IC50 under test system CDK1/Cyclin B1 (Homo sapiens, UniProt P06493) for CC(C)NC(=O)O[C@H]1CC[C@@H](c2cc(Nc3ccc4c(c3F)NS(=O)(=O)N4)n[nH]2)C1 (relative stereo) [Example 465] 4890 nM

Lab request: please report IC50 under test system CDK1/Cyclin B1 (Homo sapiens, UniProt P06493) for O=C(NCCC(F)(F)F)O[C@H]1CC[C@@H](c2cc(Nc3ccc4c(c3F)CS(=O)(=O)N4)n[nH]2)C1 (relative stereo) [Example 438] 583 nM

Lab request: please report IC50 under test system CDK1/Cyclin B1 (Homo sapiens, UniProt P06493) for CC(C)NC(=O)O[C@@H]1CC[C@H](c2cc(Nc3ccc4c(c3F)CCS(=O)(=O)N4)n[nH]2)C1 (single isomer, unassigned) [Example 430a] 1770 nM

Lab request: please report IC50 under test system CDK1/Cyclin B1 (Homo sapiens, UniProt P06493) for CC1(NC(=O)O[C@H]2CC[C@@H](c3cc(Nc4cc5c(cc4F)S(=O)(=O)NC5)n[nH]3)C2)CCOC1 (relative stereo) [Example 450] 6180 nM

Lab request: please report IC50 under test system CDK1/Cyclin B1 (Homo sapiens, UniProt P06493) for CC(C)(C)NC(=O)O[C@H]1CC[C@@H](c2cc(Nc3ccc4c(c3F)CCS(=O)(=O)N4)n[nH]2)C1 [Example 463] 140 nM

Lab request: please report IC50 under test system CDK1/Cyclin B1 (Homo sapiens, UniProt P06493) for CCNC(=O)O[C@H]1CC[C@@H](c2cc(Nc3cc4c(cc3F)S(=O)(=O)NC4)n[nH]2)C1 (relative stereo) [Example 421] > 10000 nM

Lab request: please report IC50 under test system CDK1/Cyclin B1 (Homo sapiens, UniProt P06493) for CC1(NC(=O)O[C@H]2CC[C@@H](c3cc(Nc4ccc5c(c4F)CS(=O)(=O)N5)n[nH]3)C2)CCCC1 (relative stereo) [Example 439] 215 nM

###

Molecular target: CDK2/Cyclin E1 (Homo sapiens)
Assay: CDK2/Cyclin E1 Biochemical Assay (TR-FRET), 0.060 mM ATP
Settings: 0.15 μM Rb (Ser780)-biotin substrate, pH7.0, 60 min preincubation, 120 min reaction, room temperature
Below, each entry is listed with its recorded IC50.
Express the result in nM but write the number alone.

Guide cases for IC50, answers given:
1) Cc1cc2c(cc1Nc1cc([C@@H]3CC[C@H](OC(=O)NC(C)C)C3)[nH]n1)CNS2(=O)=O (relative stereo) [Example 25]: 11
2) CCCNC(=O)O[C@H]1CC[C@@H](c2cc(Nc3ccc4c(c3)CCS(=O)(=O)N4)n[nH]2)C1 (relative stereo) [Example 247]: 9.7
3) CC[C@H](C)NC(=O)O[C@H]1CC[C@@H](c2cc(Nc3cc4c(cc3F)NS(=O)(=O)C4)n[nH]2)C1 (relative stereo) [Example 294]: 15
4) CC(C)NC(=O)O[C@H]1CC[C@@H](c2cc(Nc3ccc4c(c3)CN(C)S4(=O)=O)n[nH]2)C1 (relative stereo) [Example 11]: 4.1

What does the data say about its IC50? Entry: Cc1c(Nc2cc([C@@H]3CC[C@H](OC(=O)NC(C)C)C3)[nH]n2)ccc2c1CN(CCO)S2(=O)=O (relative stereo) [Example 37] 7.2

What does the data say about its IC50? Entry: CC(=O)N1CCC(N2Cc3c(ccc(Nc4cc([C@@H]5CC[C@H](OC(=O)NC(C)C)C5)[nH]n4)c3F)S2(=O)=O)C1 (relative stereo) [Example 80] 10

###

Target: CDK2/Cyclin E1 (Homo sapiens, UniProt P24941)
Experiment: CDK2/Cyclin E1 Biochemical Assay (TR-FRET), 1 mM ATP
Details: 0.15 μM Rb (Ser780)-biotin substrate, pH7.0, 60 min preincubation, 90 min reaction, room temperature
reportedProperty: pIC50
pIC50 here is simply -log10 of the concentration when that concentration is written in mol/L.

1. CC(C)(CO)NC(=O)O[C@H]1CC[C@@H](c2cc(Nc3ccc4c(c3F)CN(C3CC3)S4(=O)=O)n[nH]2)C1 (single isomer, unassigned) [Example 359b]: 8.15

What does the data say about its pIC50? Entry: CC1(C)CCCN1C(=O)O[C@H]1CC[C@@H](c2cc(Nc3ccc4c(c3F)CS(=O)(=O)N4)n[nH]2)C1 (relative stereo) 8.82

What does the data say about its pIC50? Entry: CC1(NC(=O)O[C@H]2CC[C@@H](c3cc(Nc4ccc5c(c4F)CS(=O)(=O)N5)n[nH]3)C2)CCC1 (single isomer, unassigned) [Example 427b] 9.10

###

Below, each entry is listed with its recorded pIC50.
Biological target: CDK1/Cyclin B1 (Homo sapiens)
Assay: CDK1/Cyclin B1 Biochemical Assay (TR-FRET), 0.015 mM ATP
Conditions: 0.15 μM Rb (Ser780)-biotin substrate, pH7.0, 60 min preincubation, 120 min reaction, room temperature
Method: CDK2/Cyclin E1 and CDK1/Cyclin B1 Biochemical Assays Compounds disclosed herein were tested for inhibition of CDK2/Cyclin E1 or CDK1/Cyclin B1 kinase in an assay based on the time-resolved fluorescence-resonance energy transfer (TR-FRET) methodology. […] Plates were incubated at room temperature for 60 minutes, and the TR-FRET signals (ex337 nm, em665 nm/620 nm) were recorded on a PHERAstar FSX plate reader (BMG Labtech). […]
pIC50 here is simply -log10 of the concentration when that concentration is written in mol/L.

Guide cases for pIC50, answers given:
1) CC(C)NC(=O)O[C@H]1CC[C@@H](c2cc(Nc3ccc4c(c3)C(C)(C)S(=O)(=O)N4)n[nH]2)C1 (relative stereo) [Example 194]: 7.07
2) CCCNC(=O)O[C@H]1CC[C@@H](c2cc(Nc3ccc4c(c3F)CS(=O)(=O)N4C3COC3)n[nH]2)C1 (single isomer, unassigned) [Example 260b]: 6.99
3) COCC(C)NC(=O)O[C@H]1CC[C@@H](c2cc(Nc3ccc4c(c3)CS(=O)(=O)N4C)n[nH]2)C1 (relative stereo) [Example 226]: 7.11
4) CC(C)NC(=O)O[C@H]1CC[C@@H](c2cc(Nc3ccc4c(c3F)C(=O)NS4(=O)=O)n[nH]2)C1 (relative stereo) [Example 59]: 6.53

What does the data say about its pIC50? Entry: CC(C)NC(=O)O[C@H]1CC[C@@H](c2cc(Nc3ccc4c(c3F)CS(=O)(=O)N4CCCO)n[nH]2)C1 (relative stereo) [Example 389] 7.13

What does the data say about its pIC50? Entry: CC(C)NC(=O)O[C@H]1CC[C@@H](c2cc(Nc3c(F)cc4c(c3F)CNS4(=O)=O)n[nH]2)C1 (relative stereo) [Example 30] 6.26

###

Below, each entry is listed with its recorded pIC50.
Target: CDK1/Cyclin B1 (Homo sapiens, UniProt P06493)
Test: CDK1/Cyclin B1 Biochemical Assay (TR-FRET), 0.015 mM ATP
Settings: 0.15 μM Rb (Ser780)-biotin substrate, pH7.0, 60 min preincubation, 120 min reaction, room temperature
pIC50 here is simply -log10 of the concentration when that concentration is written in mol/L.

Guide cases for pIC50, answers given:
1) CC(C)NC(=O)O[C@H]1CC[C@@H](c2cc(Nc3ccc4c(c3F)CN(CC3CC3)S4(=O)=O)n[nH]2)C1 (relative stereo) [Example 95]: 6.01
2) CC(C)NC(=O)O[C@H]1CC[C@@H](c2cc(Nc3ccc4c(c3F)CN(C3CCCNC3=O)S4(=O)=O)n[nH]2)C1 (relative stereo) [Example 86]: 6.13
3) CC(=O)N1CC(CN2c3ccc(Nc4cc([C@@H]5CC[C@H](OC(=O)NC(C)C)C5)[nH]n4)cc3CS2(=O)=O)C1 (relative stereo) [Example 214]: 7.36
4) CNC(=O)O[C@H]1CC[C@@H](c2cc(Nc3ccc4c(c3)CS(=O)(=O)N4C)n[nH]2)C1 (relative stereo) [Example 225]: 6.10
5) CC(C)NC(=O)O[C@H]1CC[C@@H](c2cc(Nc3ccc4c(c3F)C(C)NS4(=O)=O)n[nH]2)C1 (single isomer, unassigned) [Example 51b]: 7.09

What does the data say about its pIC50? Entry: COCC(C)(C)NC(=O)O[C@H]1CC[C@@H](c2cc(Nc3ccc4c(c3)CS(=O)(=O)N4C)n[nH]2)C1 (relative stereo) [Example 369] 7.89

What does the data say about its pIC50? Entry: CC1(NC(=O)O[C@H]2CC[C@@H](c3cc(Nc4ccc5c(c4F)CNS5(=O)=O)n[nH]3)C2)CCOC1 (single isomer, unassigned) [Example 162d] 6.80
